// reported RT (retention time during reverse phase HPLC as a measure of hydrophobicity) for each item listed
experiment: Hydrophobicity: retention time during reverse phase HPLC; format: physicochemical; conditions: Acquity CSH C18; pH 7.2 buffer/CH3CN gradient; 40° C.
Starred links: 1 amine or outer side, 2 acyl side, 3 side chain; linkers in the order of their positions; H or OH if unused. Non-standard residues stand in square brackets, D forms with d. Residues, ends and D or L forms follow the SMILES beside them. *: point of attachment. γGlu = O=C(O)[C@H](CCC(=O)[*:2])N[*:1]; Palmitoyl = CCCCCCCCCCCCCCCC(=O)*; Myristoyl = CCCCCCCCCCCCCC(=O)*; Lauroyl = CCCCCCCCCCCC(=O)*
Give your result in min as a bare value.

CCCCCCCCCCCCCC(=O)N[C@@H](CCC(=O)N[C@@H](C)C(=O)N1CCC[C@H]1C(=O)N[C@@H](Cc1ccccc1)C(=O)O)C(=O)O [Example 23, N-tetradecanoyl-γGlu-Ala-Pro-Phe-OH] ({Myristoyl-γGlu}-Ala-Pro-Phe-OH): 5.29
CCCCCCCCCCCCCCCC(=O)N[C@@H](CCC(=O)N[C@@H](C)C(=O)N[C@@H](C)C(=O)N1CCC[C@H]1C(=O)N[C@@H](Cc1ccccc1)C(=O)O)C(=O)O [Example 135, N-hexadecanoyl-γGlu-Ala-Ala-Pro-Phe-OH] ({Palmitoyl-γGlu}-AAPF-OH): 7.5
CCCCCCCCCCCCCC(=O)N[C@@H](CCC(=O)O)C(=O)N[C@@H](C)C(=O)N[C@@H](C)C(=O)N1CCC[C@H]1C(=O)N[C@@H](Cc1ccccc1)C(=O)O [Example 13, N-tetradecanoyl-Glu-Ala-Ala-Pro-Phe-OH] (Myristoyl-EAAPF-OH): 5.19

Need RT (retention time during reverse phase HPLC as a measure of hydrophobicity) of CCCCCCCCCCCCCC(=O)N[C@H](C)C(=O)N[C@H](C)C(=O)N1CCC[C@@H]1C(=O)N[C@H](Cc1ccccc1)C(=O)O [Example 2, N-tetradecanoyl-DAla-DAla-DPro-DPhe-OH] (Myristoyl-[dA][dA][dP][dF]-OH) , thanks.
9.74

Repeat for the following compound: CCCCCCCCCCCC(=O)N[C@@H](C)C(=O)N[C@@H](C)C(=O)N1CCC[C@H]1C(=O)N[C@@H](Cc1ccccc1)C(=O)O [Example 34, N-dodecanoyl-Ala-Ala-Pro-Phe-OH] (Lauroyl-AAPF-OH)
6.94

Repeat for the following compound: CCCCCCCCCCCC(=O)N[C@H](C)C(=O)N[C@H](C)C(=O)N1CCC[C@@H]1C(=O)N[C@H](Cc1ccccc1)C(=O)O [Example 1, N-dodecanoyl-DAla-DAla-DPro-DPhe-OH] (Lauroyl-[dA][dA][dP][dF]-OH)
6.91

###

system: Trypsin; experiment: Inhibition of enzymatic degradation of a model GLP-1 (FRET substrate) by trypsin; format: biochemical; conditions: read-out: EC50 Trypsin (0.001 mg/ml), 0.001 mg/ml trypsin, 37° C.
Non-standard residues stand in square brackets, D forms with d. Residues, ends and D or L forms follow the SMILES beside them. *: point of attachment. Myristoyl = CCCCCCCCCCCCCC(=O)*; Lauroyl = CCCCCCCCCCCC(=O)*
// reported pEC50 for each item listed
Convention used: pEC50 is expressed as -log10 of the molar concentration.

CCCCCCCCCCCCCC(=O)N[C@H](C)C(=O)N[C@H](C)C(=O)N1CCC[C@@H]1C(=O)N[C@H](Cc1ccccc1)C(=O)O [Example 2, N-tetradecanoyl-DAla-DAla-DPro-DPhe-OH] (Myristoyl-[dA][dA][dP][dF]-OH): 3.95

Kindly review the next compound as well.
Need pEC50 of CCCCCCCCCCCC(=O)N[C@@H](C)C(=O)N[C@@H](C)C(=O)N1CCC[C@H]1C(=O)N[C@@H](Cc1ccccc1)C(=O)O [Example 34, N-dodecanoyl-Ala-Ala-Pro-Phe-OH] (Lauroyl-AAPF-OH) , thanks.
3.50

###

assay: Hydrophobicity: retention time during reverse phase HPLC; type: physicochemical; conditions: Acquity CSH C18; pH 7.2 buffer/CH3CN gradient; 40° C.
*: point of attachment. Lauroyl = CCCCCCCCCCCC(=O)*
property measured: RT (retention time during reverse phase HPLC as a measure of hydrophobicity) (min)
Give your result in min as a bare value.

The examples below pair each entry with its known result.
N-dodecanoyl-Glu-Ala-Ala-Pro-Tyr-OH [Example 104]: 3.83
N-dodecanoyl-Ala-Ala-Gly-Tyr-OH (Lauroyl-AAGY-OH; SMILES CCCCCCCCCCCC(=O)N[C@@H](C)C(=O)N[C@@H](C)C(=O)NCC(=O)N[C@@H](Cc1ccc(O)cc1)C(=O)O) [Example 63]: 5.46

Kindly review the next substance as well.
Need RT (retention time during reverse phase HPLC as a measure of hydrophobicity) of N-dodecanoyl-Ala-Thr-Pro-Tyr-OH (Lauroyl-ATPY-OH; SMILES CCCCCCCCCCCC(=O)N[C@@H](C)C(=O)N[C@H](C(=O)N1CCC[C@H]1C(=O)N[C@@H](Cc1ccc(O)cc1)C(=O)O)[C@@H](C)O) [Example 87] , thanks.
5.76

###

assay: Hydrophobicity: retention time during reverse phase HPLC; format: physicochemical; details: Acquity CSH C18; pH 7.2 buffer/CH3CN gradient; 40° C.
*: point of attachment. Lauroyl = CCCCCCCCCCCC(=O)*
// reported RT (retention time during reverse phase HPLC as a measure of hydrophobicity) for each item listed
Give your result in min as a bare value.

N-dodecanoyl-Ala-Ala-Ala-Ala-Pro-Phe-OH [Example 19]: 6.57
N-dodecanoyl-Ala-Ile-Pro-Tyr-OH (Lauroyl-AIPY-OH; SMILES CCCCCCCCCCCC(=O)N[C@@H](C)C(=O)N[C@H](C(=O)N1CCC[C@H]1C(=O)N[C@@H](Cc1ccc(O)cc1)C(=O)O)[C@@H](C)CC) [Example 80]: 7.24

Need RT (retention time during reverse phase HPLC as a measure of hydrophobicity) of N-dodecanoyl-Ala-Val-Pro-Tyr-OH (Lauroyl-AVPY-OH; SMILES CCCCCCCCCCCC(=O)N[C@@H](C)C(=O)N[C@H](C(=O)N1CCC[C@H]1C(=O)N[C@@H](Cc1ccc(O)cc1)C(=O)O)C(C)C) [Example 90] , thanks.
6.6

###

experiment: Hydrophobicity: retention time during reverse phase HPLC; assay type: physicochemical; details: Acquity CSH C18; pH 7.2 buffer/CH3CN gradient; 40° C.
*: point of attachment. Lauroyl = CCCCCCCCCCCC(=O)*
Flag rule - RT (retention time during reverse phase HPLC as a measure of hydrophobicity) less than 5 min flags T; the remaining entries get F.

Please review the following examples before continuing.
N-dodecanoyl-Ala-Ala-Met-Tyr-OH (Lauroyl-AAMY-OH; SMILES CCCCCCCCCCCC(=O)N[C@@H](C)C(=O)N[C@@H](C)C(=O)N[C@@H](CCSC)C(=O)N[C@@H](Cc1ccc(O)cc1)C(=O)O) [Example 68]: F
N-dodecanoyl-Gly-Ala-Ala-Pro-Tyr-OH [Example 36]: F
N-dodecanoyl-Ala-Gln-Pro-Tyr-OH (Lauroyl-AQPY-OH; SMILES CCCCCCCCCCCC(=O)N[C@@H](C)C(=O)N[C@@H](CCC(N)=O)C(=O)N1CCC[C@H]1C(=O)N[C@@H](Cc1ccc(O)cc1)C(=O)O) [Example 76]: F

Is it true that RT (retention time during reverse phase HPLC as a measure of hydrophobicity) reported for N-dodecanoyl-Ala-Arg-Pro-Tyr-OH (Lauroyl-ARPY-OH; SMILES CCCCCCCCCCCC(=O)N[C@@H](C)C(=O)N[C@@H](CCCNC(=N)N)C(=O)N1CCC[C@H]1C(=O)N[C@@H](Cc1ccc(O)cc1)C(=O)O) [Example 73] is less than 5 min?
F

Repeat for the following substance: N-dodecanoyl-Asp-Ala-Pro-Tyr-OH (Lauroyl-DAPY-OH; SMILES CCCCCCCCCCCC(=O)N[C@@H](CC(=O)O)C(=O)N[C@@H](C)C(=O)N1CCC[C@H]1C(=O)N[C@@H](Cc1ccc(O)cc1)C(=O)O) [Example 96]
T

###

test: Hydrophobicity: retention time during reverse phase HPLC; assay type: physicochemical; conditions: Acquity CSH C18; pH 7.2 buffer/CH3CN gradient; 40° C.
Starred links: 1 amine or outer side, 2 acyl side, 3 side chain; linkers in the order of their positions; H or OH if unused. Non-standard residues stand in square brackets, D forms with d. *: point of attachment. γGlu = O=C(O)[C@H](CCC(=O)[*:2])N[*:1]; C12 diacid = O=C(O)CCCCCCCCCCC(=O)*; Lauroyl = CCCCCCCCCCCC(=O)*
Our labelling divides records by RT (retention time during reverse phase HPLC as a measure of hydrophobicity) into ranges: interval 1 = under 4 min, interval 2 = from 4 min up to 6 min, interval 3 = 6 min and over

N-dodecanoyl-γGlu-Ala-Pro-Tyr-OH (Lauroyl-[γGlu]APY-OH; SMILES CCCCCCCCCCCC(=O)N[C@@H](CCC(=O)N[C@@H](C)C(=O)N1CCC[C@H]1C(=O)N[C@@H](Cc1ccc(O)cc1)C(=O)O)C(=O)O) [Example 98]: interval 1
N-dodecanoyl-Pro-Ala-Ala-Pro-Tyr-OH [Example 48]: interval 3
N-dodecanoyl-His-Ala-Pro-Tyr-OH (Lauroyl-HAPY-OH; SMILES CCCCCCCCCCCC(=O)N[C@@H](Cc1c[nH]cn1)C(=O)N[C@@H](C)C(=O)N1CCC[C@H]1C(=O)N[C@@H](Cc1ccc(O)cc1)C(=O)O) [Example 39]: interval 2
N-dodecandioyl-Ala-Ala-Pro-Phe-OH ({C12 diacid}-AAPF-OH) [Example 15]: interval 1
N-dodecanoyl-Gln-Ala-Pro-Tyr-OH (Lauroyl-QAPY-OH; SMILES CCCCCCCCCCCC(=O)N[C@@H](CCC(N)=O)C(=O)N[C@@H](C)C(=O)N1CCC[C@H]1C(=O)N[C@@H](Cc1ccc(O)cc1)C(=O)O) [Example 103]: interval 2

Class for N-tetradecanoyl-Ala-Ala-Pro-Phe-OH [Example 3] ?
interval 3

Repeat for the following substance: N-dodecanoyl-Ala-Ala-His-Tyr-OH (Lauroyl-AAHY-OH; SMILES CCCCCCCCCCCC(=O)N[C@@H](C)C(=O)N[C@@H](C)C(=O)N[C@@H](Cc1c[nH]cn1)C(=O)N[C@@H](Cc1ccc(O)cc1)C(=O)O) [Example 64]
interval 2

Repeat for the following substance: N-dodecanoyl-Gln-Pro-Tyr-OH [Example 116]
interval 2

Repeat for the following substance: N-dodecanoyl-Ala-Val-Tyr-OH [Example 112]
interval 3

Repeat for the following substance: N-dodecanoyl-Ala-Ala-Pro-Trp-OH (Lauroyl-AAPW-OH; SMILES CCCCCCCCCCCC(=O)N[C@@H](C)C(=O)N[C@@H](C)C(=O)N1CCC[C@H]1C(=O)N[C@@H](Cc1c[nH]c2ccccc12)C(=O)O) [Example 26]
interval 3

Repeat for the following substance: N-dodecanoyl-Ala-Lys-Pro-Tyr-OH (Lauroyl-AKPY-OH; SMILES CCCCCCCCCCCC(=O)N[C@@H](C)C(=O)N[C@@H](CCCCN)C(=O)N1CCC[C@H]1C(=O)N[C@@H](Cc1ccc(O)cc1)C(=O)O) [Example 82]
interval 2

Repeat for the following substance: N-dodecanoyl-Thr-Pro-Tyr-OH [Example 108]
interval 2

Repeat for the following substance: N-dodecanoyl-Ala-Ala-Thr-Tyr-OH (Lauroyl-AATY-OH; SMILES CCCCCCCCCCCC(=O)N[C@@H](C)C(=O)N[C@@H](C)C(=O)N[C@H](C(=O)N[C@@H](Cc1ccc(O)cc1)C(=O)O)[C@@H](C)O) [Example 71]
interval 2
